# STUDY_SYSTEM: Replicase polyprotein 1ab (Severe acute respiratory syndrome coronavirus 2)
# PROTOCOL_TEXT: Inhibition of SARS CoV-2 MPro
REPORTED_PROPERTY: EC50 (nM)
Answers are plain numbers, in nM.

Query block: EC50 for C[C@@H](OC(C)(C)C)[C@H](NC(=O)OCc1cccc(OCCCCCOc2cccc3c2C(=O)N(C2CCC(=O)NC2=O)C3=O)c1)C(=O)N[C@H](CN[C@H](C=O)C[C@@H]1CCNC1=O)CC1CCCCC1 (stereo partly specified) ?
Result block: 290

The measurements presented in this section are drawn from ChEMBL document CHEMBL6127072.
